biological target: HLA-A*02:01 (Homo sapiens, UniProt P04439, D140Y/D185E/D98H/E176V/E277Q/G131W/G231S/I119V/I121R/I166T/I218V/L300P/L318F/N151K/N90K/P208A/P217A/Q86G/Q94H/R138H/R169H/T345S); assay: MHC binding assay (UV-ligand exchange, beta2m ELISA); conditions: binding to HLA-A*02:01, β2m ELISA
measured.property: Peptide exchange (MHC class I binding score, peptide exchange yield)

- substance: "5 (GLVDIMVHL; listed as Homo sapiens) [compound 5]"
  recorded.measurement: "+++ (≧50 = +++)"
- substance: "55 (HLFDKIIKI; listed as Homo sapiens) [compound 55]"
  recorded.measurement: "+++ (≧50 = +++)"
- substance: "75 (ALLDGALQL; listed as Homo sapiens) [compound 75]"
  recorded.measurement: "+++ (≧50 = +++)"

---

target: HLA-A*02:01 (Homo sapiens, UniProt P04439, D140Y/D185E/D98H/E176V/E277Q/G131W/G231S/I119V/I121R/I166T/I218V/L300P/L318F/N151K/N90K/P208A/P217A/Q86G/Q94H/R138H/R169H/T345S); assay: MHC binding assay (UV-ligand exchange, beta2m ELISA); conditions: binding to HLA-A*02:01, β2m ELISA
measured.property: Peptide exchange (MHC class I binding score, peptide exchange yield)

These recorded examples may help you get a feel for the data.
- substance: "274 (TLYNPERTITV; listed as Homo sapiens) [compound 274]"
  recorded.measurement: "+++ (≧50 = +++)"
- substance: "35 (VIIKGLEEI; listed as Homo sapiens) [compound 35]"
  recorded.measurement: "++ (≧20% = ++)"
- substance: "187 (SILKEDPFL; listed as Homo sapiens) [compound 187]"
  recorded.measurement: "++ (≧20% = ++)"
- substance: "100 (ALQSFEFRV; listed as Homo sapiens) [compound 100]"
  recorded.measurement: "+++ (≧50 = +++)"

Here is another substance to look at.
query: I have this substance here, 283 (ALSELLQQV; listed as Homo sapiens) [compound 283] , and I need its recorded Peptide exchange (MHC class I binding score, peptide exchange yield).
result: +++ (≧50 = +++)
